molecular target: 5-lipoxygenase (Rattus norvegicus, UniProt P12527); construct: The 100,000 x g supernatant fraction of Rat Basophilic Leukemia Cell Homogenate (RBL-1) serves as a 5-lipoxygenase enzyme source; endogenous in cells; test: Inhibition of 5-lipoxygenase, in vitro (5-HETE synthesis from [1-14C]-arachidonic acid, RBL-1 supernatant); conditions: 100,000 x g supernatant of Rat Basophilic Leukemia Cell Homogenate (RBL-1); active = 30% or more inhibition of 5-HETE synthesis; initial screening 1 x 10⁻⁴M; read-out: 5-Lipoxygenase Inhibition, in vitro. IC₅₀
Sequence (P12527 whole entry): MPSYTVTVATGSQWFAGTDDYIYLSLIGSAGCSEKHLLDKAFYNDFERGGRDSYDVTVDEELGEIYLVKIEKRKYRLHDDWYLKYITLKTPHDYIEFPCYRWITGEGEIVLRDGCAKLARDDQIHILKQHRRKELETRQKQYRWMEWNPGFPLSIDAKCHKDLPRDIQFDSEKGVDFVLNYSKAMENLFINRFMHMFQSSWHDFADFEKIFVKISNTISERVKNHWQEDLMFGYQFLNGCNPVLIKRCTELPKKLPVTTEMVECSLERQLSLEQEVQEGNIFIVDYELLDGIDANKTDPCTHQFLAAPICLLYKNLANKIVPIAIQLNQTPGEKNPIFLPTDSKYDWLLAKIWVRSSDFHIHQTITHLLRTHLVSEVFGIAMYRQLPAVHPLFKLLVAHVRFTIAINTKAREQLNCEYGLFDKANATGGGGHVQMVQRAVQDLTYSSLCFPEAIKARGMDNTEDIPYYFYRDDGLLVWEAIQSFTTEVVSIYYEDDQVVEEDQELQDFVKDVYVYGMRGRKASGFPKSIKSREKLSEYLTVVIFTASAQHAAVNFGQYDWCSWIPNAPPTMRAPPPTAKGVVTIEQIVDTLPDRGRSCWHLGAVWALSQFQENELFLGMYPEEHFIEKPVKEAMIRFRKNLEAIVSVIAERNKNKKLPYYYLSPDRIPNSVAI
pIC50: −log10 of the molar value.
Cut-off 6 on pIC50, inclusive. At or above means Met; below means Not met.

Solved cases (6 shown):
compound	class-name
COC(=O)CCSc1cc(C(C)(C)C)c(O)c(C(C)(C)C)c1	Met
COC(=O)CC[S+]([O-])c1cc(C(C)(C)C)c(O)c(C(C)(C)C)c1 (stereo not shown)	Not met
CCOC(=O)C(C)Sc1cc(C(C)(C)C)c(O)c(C(C)(C)C)c1 (stereo not shown)	Met
CC(C)(C)c1cc(SCCC(=O)O)cc(C(C)(C)C)c1O	Not met
CCOC(=O)C=CCCSc1cc(C(C)(C)C)c(O)c(C(C)(C)C)c1	Met
COC(=O)CSSc1cc(C(C)(C)C)c(O)c(C(C)(C)C)c1	Met

(Q) Decide: is the reported value of pIC50 for CCCC(Sc1cc(C(C)(C)C)c(O)c(C(C)(C)C)c1)C(=O)O (stereo not shown) equal to or greater than 6?
(A) Not met

----------
target: 5-lipoxygenase (Rattus norvegicus, UniProt P12527); construct: The 100,000 x g supernatant fraction of Rat Basophilic Leukemia Cell Homogenate (RBL-1) serves as a 5-lipoxygenase enzyme source; endogenous in cells; assay: Inhibition of 5-lipoxygenase, in vitro (5-HETE synthesis from [1-14C]-arachidonic acid, RBL-1 supernatant); settings: 100,000 x g supernatant of Rat Basophilic Leukemia Cell Homogenate (RBL-1); active = 30% or more inhibition of 5-HETE synthesis; initial screening 1 x 10⁻⁴M; read-out: 5-Lipoxygenase Inhibition, in vitro. IC₅₀
List of pIC50 values.
Please note pIC50 is a logarithmic value: minus log10 of concentration in mol/L. Answer with that number alone.

Recorded pIC50, per entry:
molecule	measured-on	measured-attribute	quantitative-readout
CC(C)(C)c1cc(SCCCC(=O)O)cc(C(C)(C)C)c1O	5-lipoxygenase (Rattus norvegicus, UniProt P12527)	pIC50	6.00
CCCC(Sc1cc(C(C)(C)C)c(O)c(C(C)(C)C)c1)C(=O)OCC (stereo not drawn)	5-lipoxygenase (Rattus norvegicus, UniProt P12527)	pIC50	5.89

Proceed to the following item.
Measured pIC50 of CC(C)(C)c1cc(SCCCCC(=O)O)cc(C(C)(C)C)c1O : 5.96

Reference for the values: patent EP0293900B1
